Below, each of the molecules is paired with its reported C0 value.
- TEST_CONTEXT: cynomolgus monkey, in vivo, iv, 2 mg/kg
Give the value, in units of ng/mL, as a plain number.

Some molecules with recorded C0:
MOLECULE | TEST_VALUE
12A2_sv1-AAA-12A2_sv1-9GS-59C2-9GS-59C2 (protein) DVQLVESGGGLVQPGGSLRLSCAASGRTFSYNPMGWFRQAPGKGRELVAAISRTGGSTYYPESVEGRFTISRDNAKRTVYLQMNSLRAEDTAVYYCAAAGVRAEQGRVRTLPSEYTFWGQGTQVTVSSAAAEVQLVESGGGLVQPGGSLRLSCAASGRTFSYNPMGWFRQAPGKGRELVAAISRTGGSTYYPESVEGRFTISRDNAKRTVYLQMNSLRAEDTAVYYCAAAGVRAEQGRVRTLPSEYTFWGQGTQVTVSSGGGGSGGGSRDWDFDVFGGGTPVGGGGGGSGGGSRDWDFDVFGGGTPVGG | 69400
12A2_sv1-AAA-12A2_sv1-9GS-59C2 (protein) DVQLVESGGGLVQPGGSLRLSCAASGRTFSYNPMGWFRQAPGKGRELVAAISRTGGSTYYPESVEGRFTISRDNAKRTVYLQMNSLRAEDTAVYYCAAAGVRAEQGRVRTLPSEYTFWGQGTQVTVSSAAAEVQLVESGGGLVQPGGSLRLSCAASGRTFSYNPMGWFRQAPGKGRELVAAISRTGGSTYYPESVEGRFTISRDNAKRTVYLQMNSLRAEDTAVYYCAAAGVRAEQGRVRTLPSEYTFWGQGTQVTVSSGGGGSGGGSRDWDFDVFGGGTPVGG | 46500
12A2_sv1-AAA-12A2_sv1 (protein) DVQLVESGGGLVQPGGSLRLSCAASGRTFSYNPMGWFRQAPGKGRELVAAISRTGGSTYYPESVEGRFTISRDNAKRTVYLQMNSLRAEDTAVYYCAAAGVRAEQGRVRTLPSEYTFWGQGTQVTVSSAAAEVQLVESGGGLVQPGGSLRLSCAASGRTFSYNPMGWFRQAPGKGRELVAAISRTGGSTYYPESVEGRFTISRDNAKRTVYLQMNSLRAEDTAVYYCAAAGVRAEQGRVRTLPSEYTFWGQGTQVTVSS | 45300

Then this molecule:
Notebook: 12A2_sv1-9GS-59C2-9GS-12A2_sv1 (protein) DVQLVESGGGLVQPGGSLRLSCAASGRTFSYNPMGWFRQAPGKGRELVAAISRTGGSTYYPESVEGRFTISRDNAKRTVYLQMNSLRAEDTAVYYCAAAGVRAEQGRVRTLPSEYTFWGQGTQVTVSSGGGGSGGGSRDWDFDVFGGGTPVGGGGGGSGGGSEVQLVESGGGLVQPGGSLRLSCAASGRTFSYNPMGWFRQAPGKGRELVAAISRTGGSTYYPESVEGRFTISRDNAKRTVYLQMNSLRAEDTAVYYCAAAGVRAEQGRVRTLPSEYTFWGQGTQVTVSS , C0 read as 48900

Reference source for all entries: patent US8217140B2
